Property: TGI; scope: individual compounds
# Tested on: SF-539 CNS
# TEST_DETAILS: NCI tumour cell line growth inhibition, 48 h

Example cases with answers are listed next.
Please report the recorded TGI for COC(=O)c1ccccc1/C=C1\Cc2cc(C)c(C)cc2C1=O . > 100 µM

// query: NC(=O)c1[nH]cnc1/N=N/SCC(N)C(=O)O (stereo unspecified) > 100 µM

Continue with O=C(CCN1CCOCC1)Nc1ccc2sc3ccccc3c(=O)c2n1 > 100 µM

Others:
Fill in the blank: the reported TGI of C=CCN(C)CN(C)c1nc(N(C)C)nc(N(C)C)n1 is ____. > 100 µM

How about COc1cccc(C2C3=C(COC3=O)Oc3cc4c(cc32)OCO4)c1 (stereo unspecified) ? 0.0667 µM

And CCc1c(Cc2cc(C)cc(C)c2)n2c(nc1=O)SCC2CBr (stereo unspecified) ? > 50 µM

----------
# System: RPMI-8226 leukemia
# TEST_DETAILS: NCI tumour cell line growth inhibition, 48 h
MEASURE_NAME: TGI

Use these answered entries as a reference point.
Which TGI value is on record for NC(CCOCCP(=O)(O)CCOCCC(N)C(=O)O)C(=O)O (stereo not given) ? > 100 µM

Moving on to the next compound: O=[N+]([O-])c1ccc(Sc2c3ccccc3nc3ccccc23)nc1 5.03 µM

Next record, please: O=[N+]([O-])/C(C(Cl)=C(Cl)Cl)=C(/Sc1ccccc1)N1CCCCC1 > 100 µM

Kindly consider the entry below.
Entry under review: N[C@@H]1CCCN(c2c(/C=C3\SC(=O)NC3=O)cccc2-c2ccccc2)C1 . Reported TGI? 21.6 µM

----------
# Tested on: MDA-MB-231 breast
# TEST_DETAILS: NCI tumour cell line growth inhibition, 48 h
MEASURE_NAME: TGI

Reported TGI for COc1cc2cc(C(=O)N3CC(CCl)c4ccccc43)[nH]c2c(OC)c1OC (configuration not stated) : what is it? > 100 µM

***
Look at this compound and give its reported TGI. NC(CCOCCP(=O)(O)CCOCCC(N)C(=O)O)C(=O)O (configuration not stated) > 100 µM

One more compound: COc1ccccc1S(=O)(=O)Nc1ccc2c(c1)CN(C)C(=O)N2 > 100 µM

Now the compound CCOC(=O)/C=C(/C(=O)OCC)n1ccc(=O)n(/C(=C/C(=O)OCC)C(=O)OCC)c1=O 31.9 µM

Same question, Nc1nnc(Cn2c(-c3ccccc3)nc3ccc(Br)cc3c2=O)s1 this time > 100 µM

----------
# Tested on: SNB-19 CNS
# TEST_DETAILS: NCI tumour cell line growth inhibition, 48 h; in the data active = GI50 below about 0.43 µM; inactive = the rest
Write down the outcome that applies. Available outcomes: active, inactive

Consider the following illustrative entries.
In this assay, the call recorded for CC1=C[S+](c2ccccc2)c2cccc3cc4ccccc4c1c23 (stereo not given) was what? active

Also check COc1cnc2c(c1)C(=O)c1c-2n(CCCN2CCCC2)c(=O)c2cc(F)ccc12 active

Let us now turn to C[C@H]1C(Oc2ccc(O)cc2)OC2OC3(C)CCC4[C@H](C)CCC1C24OO3 (stereo not given in full) inactive

Next up: N#Cc1ccc(C(c2ccc(C#N)cc2)n2cncn2)cc1 inactive

Attention now shifts to the item below.
Please let me know the test result on file for O=C(c1ccccc1)c1nc2ccc(C(F)(F)F)cc2[n+]([O-])c1C(F)(F)F . inactive

----------
# System: M14 melanoma
# TEST_DETAILS: NCI tumour cell line growth inhibition, 48 h
MEASURE_NAME: log10(TGI) (log10 of the value in µM)
Quick note: numbers are log10 of TGI, with µM as the unit.

Record excerpt, results attached:
What log10(TGI) value was documented for this molecule, O=C(O)C1(Cc2cccc(Nc3nccs3)n2)CCC(Oc2cccc(Cl)c2F)CC1 (stereo not given) ? 1.48

And for NC(=O)NC(=O)c1cccc(NC(=O)CBr)c1 ? -0.26

More entries:
Quick one: log10(TGI) for O=[N+]([O-])c1ccc2ncccc2c1Cl ? 1.06

// same read-out, input: C=C1C(=O)O[C@H]2[C@H]1CC/C(COC(=O)c1ccc(C#N)cc1)=C\CC[C@@]1(C)O[C@@H]21 0.56

Input CSc1ccc(/C=C/c2ccnc3ccccc23)cc1 1.34

----------
# System: SF-295 CNS
# TEST_DETAILS: NCI tumour cell line growth inhibition, 48 h
# TGI listing for each entry below
Your answer should be a plain number; it is taken to be in µM.

Fill in the recorded TGI for this molecule, with SF-295 CNS as test system: CCCCS(=O)(=O)Nc1ccc(Nc2c3ccccc3nc3ccccc23)c(OC)c1 9.84

What do we get for O=C(OCc1ccc2c(Cl)cc(Cl)c(O)c2n1)c1cc2ccccc2[nH]1 ? 3.31

Request: C=C(C)[C@@H]1CC[C@]2(COC3CCCCO3)CC[C@]3(C)[C@H](CC[C@@H]4[C@@]5(C)C=C(C=O)C(=O)C(C)(C)[C@@H]5CC[C@]43C)[C@@H]12 (some centres undefined) 2.96

And for CCOC(=O)Nc1ccc(-c2nc(-c3cccc(OC)c3)c(-c3ccnc(Br)c3)[nH]2)cc1 ? 2.93

For the next question, use this molecule.
Lab request: please report TGI under test system SF-295 CNS for CCCCCC/C=C\CCCCCCCCCC1=CC(=O)C=C(OC)C1=O 13.2

----------
# Test system: K-562 leukemia
# TEST_DETAILS: NCI tumour cell line growth inhibition, 48 h
Known TGI of a selection of compounds

Report TGI for COc1cc(N(CCC#N)CCC#N)ccc1/C(N=Nc1ccccc1)=N/NC(=O)c1cc(Br)ccc1O please. 42.7 µM

For O=C1C2c3[nH]c4ccccc4c3[C@@H]3CCCCC3C2C(=O)N1c1ccccc1 (some centres not stated) then? > 100 µM

# iterate: CCCCCCCN1C(=O)C(O)(c2ccc(C3(O)C(=O)N(CCCCCCC)c4ccccc43)s2)c2ccccc21 (configuration not stated) 7.67 µM

How about CNC1C(O)C(OC2C(N)CC(N)C(OC3OC(C(C)O)C(O)C(O)C3N)C2O)OCC1(C)O (configuration not stated) ? > 100 µM

Another compound to look at: CCCCCCCCCCCCN(O)C(=O)c1ccccc1 > 100 µM

Field entry: COC(=O)[C@@H]1C[C@@H]2c3ccccc3N(S(=O)(=O)c3ccccc3)[C@@H]2N1C(=O)OC > 100 µM

Now this one: CCCCC(=O)Oc1ccc2c(C)cc(=O)oc2c1 > 100 µM

Same question for O=C(O)C1(Cc2cccc(Nc3nccs3)n2)CCC(Oc2cccc(Cl)c2F)CC1 (configuration not stated) please. > 56.5 µM

Others:
Please report the recorded TGI for NC(=Nc1ccc(O)cc1)S(=O)O . > 100 µM

Query N[C@@H]1CCCN(c2c(/C=C3\SC(=O)NC3=O)cccc2-c2ccccc2)C1 next 54.2 µM

And Cn1c2c(c3ccccc31)CCN(CCCCN1CCN(c3cccc(Cl)c3)CC1)C2=O ? 27.6 µM

Okay, and CCS(=O)(=O)CCn1cnc2c1c(=O)n(C)c(=O)n2C ? > 100 µM

Same lookup for C=CC(C)CCC(C/C=C(\C)CCC=C(C)C)C(=C)CCCC(C)C (configuration not stated) , please. > 100 µM

What about COc1ccc(Cc2nccc3cc(OC)c(OC)cc23)cc1OC ? > 100 µM

One more compound: CN(C)c1n/c(=N/c2ncn[nH]2)ss1 > 100 µM

Another compound: Cc1nc(Nc2ccc([N+](=O)[O-])cc2)sc1C(/C=C/c1ccc(N(C)C)cc1)=N/NC(=O)c1ccccc1 > 100 µM

Please give the result for O=c1cc(-c2ccc(Cl)cc2)oc2cc(OCCCOc3ccc4c(=O)cc(-c5ccc(Cl)cc5)oc4c3)ccc12 too. > 100 µM

Queued: CC#CCCN(CC#N)Cc1ccccc1 > 100 µM

Same lookup for COc1cc2c(cc1O)[C@@H]1Cc3c(cc(OC)c(OC)c3Oc3cc4c(cc3OC)CCN(C)[C@@H]4Cc3ccc(O)cc3)[C@H](C2)N1C , please. 45.8 µM

Could you do the same for COc1ccc2c(c1)CCC1=CC3(CCC12C)SCCS3 (configuration not stated) , please? > 10 µM

Please answer likewise for O=C1NC(N2CCCC(CO)C2)=N/C1=C\c1ccc(Cl)cc1 (configuration not stated) > 100 µM

----------
# System: NCI-H460 lung
# TEST_DETAILS: NCI tumour cell line growth inhibition, 48 h
MEASURE_NAME: TGI

Field: example entries. Status: answers known.
Fill in the blank: the reported TGI of N#CC(Cc1ccccc1Br)N(CCC1=CCCCC1)C(c1ccccc1)c1ccccc1 (stereo not given) is ____. > 100 µM

Another molecule: CC(C)(C)C(=O)O[C@@H]1COC2C(O)COC21 (stereo not given in full) > 100 µM

Then what about the molecule COc1cccc(C2C3=C(COC3=O)Oc3cc4c(cc32)OCO4)c1 (stereo not given) ? > 34 µM

Now try CCOC(=O)NC(=O)c1cn(CCN2CCN(C(=O)CCCCCCCCCCNc3ncnc4nc[nH]c34)CC2)c(=O)[nH]c1=O . > 100 µM

Would you kindly repeat that for C=C1C(=O)O[C@H]2[C@H]1CC(=O)/C(C)=C/CC[C@@]1(C)O[C@@H]21 ? 29.8 µM

Others:
What measured TGI goes with Cc1ccc(S(=O)(=O)N2CCCC2C(=O)O[C@H]2CC[C@H]3CC=C[C@H]32)cc1 (stereo not given in full) ? 91.4 µM

Another molecule: O=c1[nH]n(Cc2ccccn2)c2ccc([N+](=O)[O-])cc12 > 100 µM

Next molecule: Nc1nnc(Cn2c(-c3ccccc3)nc3ccc(Br)cc3c2=O)s1 > 100 µM

# iterate: CCOC(=O)c1cc2c(n1Cc1ccccc1)-c1oncc1CC2 11.4 µM

Please answer likewise for O=C(O)Cn1c(=O)[nH]c(=O)c2c1ncn2Cc1ccccc1 > 100 µM
